# System: 439559-082-T-J2-PDC spheroid viability
# measurement protocol: Anticancer human tumor 439559-082-T-J2-PDC patient-derived colon adenocarcinoma cell line growth inhibition [POLQ]
# stated conditions: second compound 0.1 µM; first compound 0.316 µM; stronger effect = lower value; spheroids with HUVEC and MSC
Lab note: compare viability, T/C with 80%, writing 1.0 if less and 0.0 if equal or more.

molecule	category
C=CC(=O)N1CCN(c2nc(=O)n(-c3c(C)ccnc3C(C)C)c3nc(-c4c(O)cccc4F)c(F)cc23)C(C)C1 (configuration not stated) + Nc1ccc(C#CCN(C(=O)Cc2ncc(C(F)(F)F)cc2C(F)(F)F)c2ccc(F)cc2)nn1	0.0
CC1COCCN1c1cc(C2(O)CC3CCC(C2)O3)c2cnn(-c3ccn[nH]3)c2n1 (configuration not stated) + Cc1cccc(N(C)C(=O)C2C(O)CCN2c2nc(C)cc(C(F)(F)F)c2C#N)c1	1.0
COc1cc(C2c3cc4c(cc3C(OC3OC5COC(C)OC5C(O)C3O)C3COC(=O)C23)OCO4)cc(OC)c1O (configuration not stated) + Nc1ccc(C#CCN(C(=O)Cc2ncc(C(F)(F)F)cc2C(F)(F)F)c2ccc(F)cc2)nn1	0.0
CCc1cc2c(N3CCc4c(cc(Cn5ccnc5)cc4-c4cn(C)nc4C(F)(F)F)C3=O)cc(C)nc2c(OC)n1 + COC1C(OC(N)=O)C(O)C(Oc2ccc3c(O)c(NC(=O)c4ccc(O)c(CC=C(C)C)c4)c(=O)oc3c2C)OC1(C)C	0.0
CCc1c2c(nc3ccc(O)cc13)-c1cc3c(c(=O)n1C2)COC(=O)[C@]3(O)CC + COC1C(OC(N)=O)C(O)C(Oc2ccc3c(O)c(NC(=O)c4ccc(O)c(CC=C(C)C)c4)c(=O)oc3c2C)OC1(C)C	1.0

Problem: For the molecule COc1cccc(OCCCN)c1-c1cc(Nc2cnc(C#N)cn2)n[nH]1 + Cc1cccc(N(C)C(=O)C2C(O)CCN2c2nc(C)cc(C(F)(F)F)c2C#N)c1 , is viability, T/C under 80%? 1.0

Follow-up item: Nc1ccn(C2OC(CO)C(O)C2(F)F)c(=O)n1 (configuration not stated) + Nc1ccc(C#CCN(C(=O)Cc2ncc(C(F)(F)F)cc2C(F)(F)F)c2ccc(F)cc2)nn1 1.0

Follow-up item: O=c1[nH]cc(F)c(=O)[nH]1 + COC1C(OC(N)=O)C(O)C(Oc2ccc3c(O)c(NC(=O)c4ccc(O)c(CC=C(C)C)c4)c(=O)oc3c2C)OC1(C)C 0.0

Follow-up item: O=C(Nc1ccc(O)c(NS(=O)(=O)c2ccc(F)cc2)c1)c1ccc(-c2ccccc2)cc1 + COC1C(OC(N)=O)C(O)C(Oc2ccc3c(O)c(NC(=O)c4ccc(O)c(CC=C(C)C)c4)c(=O)oc3c2C)OC1(C)C 0.0

Follow-up item: CCc1c2c(nc3ccc(O)cc13)-c1cc3c(c(=O)n1C2)COC(=O)[C@]3(O)CC + Nc1ccc(C#CCN(C(=O)Cc2ncc(C(F)(F)F)cc2C(F)(F)F)c2ccc(F)cc2)nn1 1.0

###

Below, each entry is listed alongside its reported viability, T/C.
# System: 439559-082-T-J2-PDC spheroid viability
# measurement protocol: Anticancer human tumor 439559-082-T-J2-PDC cell line growth inhibition [POLQ];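 note: spheroids exposed to compounds for seven days before readout; 100% = DMSO vehicle control viability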
# stated conditions: second compound 10 µM; first compound 0.1 µM; stronger effect = lower value; spheroids with HUVEC and MSC
Answer in %, number only, no unit symbol.

Looking for the measured viability, T/C of O=c1[nH]cc(F)c(=O)[nH]1 + Nc1ccc(C#CCN(C(=O)Cc2ncc(C(F)(F)F)cc2C(F)(F)F)c2ccc(F)cc2)nn1 , can you help? 91.3

Follow-up item: CC1COCCN1c1cc(-c2ccnn2C)c2ccnc(-c3ccn[nH]3)c2n1 (stereo not given) + COC1C(OC(N)=O)C(O)C(Oc2ccc3c(O)c(NC(=O)c4ccc(O)c(CC=C(C)C)c4)c(=O)oc3c2C)OC1(C)C 78.5

###

# Tested on: 439559-082-T-J2-PDC spheroid viability
# measurement protocol: Anticancer human tumor 439559-082-T-J2-PDC cell line growth inhibition [POLQ];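 note: spheroids exposed to compounds for seven days before readout; 100% = DMSO vehicle control viability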
# stated conditions: second compound 1 µM; first compound 1 µM; stronger effect = lower value; spheroids with HUVEC and MSC
measured parameter: viability, T/C (%)
Answer in %, number only, no unit symbol.

molecule	unit symbol	viability, T/C
C=CCn1c(=O)c2cnc(Nc3ccc(N4CCN(C)CC4)cc3)nc2n1-c1cccc(C(C)(C)O)n1 + Nc1ccc(C#CCN(C(=O)Cc2ncc(C(F)(F)F)cc2C(F)(F)F)c2ccc(F)cc2)nn1	%	78.7
CCc1cc2c(N3CCc4c(cc(Cn5ccnc5)cc4-c4cn(C)nc4C(F)(F)F)C3=O)cc(C)nc2c(OC)n1 + Cc1cccc(N(C)C(=O)C2C(O)CCN2c2nc(C)cc(C(F)(F)F)c2C#N)c1	%	95.7

Looking for the measured viability, T/C of O=c1[nH]cc(F)c(=O)[nH]1 + Nc1ccc(C#CCN(C(=O)Cc2ncc(C(F)(F)F)cc2C(F)(F)F)c2ccc(F)cc2)nn1 , can you help? 81.9

Follow-up item: O=C(c1cc(Cc2n[nH]c(=O)c3ccccc23)ccc1F)N1CCN(C(=O)C2CC2)CC1 + Nc1ccc(C#CCN(C(=O)Cc2ncc(C(F)(F)F)cc2C(F)(F)F)c2ccc(F)cc2)nn1 108

Follow-up item: CC1COCCN1c1cc(-c2ccnn2C)c2ccnc(-c3ccn[nH]3)c2n1 (stereo unspecified) + Nc1ccc(C#CCN(C(=O)Cc2ncc(C(F)(F)F)cc2C(F)(F)F)c2ccc(F)cc2)nn1 42.4

Follow-up item: O=C(c1cc(Cc2n[nH]c(=O)c3ccccc23)ccc1F)N1CCN(C(=O)C2CC2)CC1 + COC1C(OC(N)=O)C(O)C(Oc2ccc3c(O)c(NC(=O)c4ccc(O)c(CC=C(C)C)c4)c(=O)oc3c2C)OC1(C)C 106

###

# System: 439559-082-T-J2-PDC spheroid viability
# measurement protocol: Anticancer human tumor 439559-082-T-J2-PDC cell line growth inhibition [POLQ];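 note: spheroids exposed to compounds for seven days before readout; 100% = DMSO vehicle control viability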
# stated conditions: second compound 3.16 µM; first compound 0.316 µM; stronger effect = lower value; spheroids with HUVEC and MSC
# Experimental: Multicellular complex tumor spheroid response to Polymerase (POL) inhibitors (novobiocin, ART-558, RP6685) in combination with a variety of drugs and investigational agents in selected tumor cell lines The POL inhibitors (novobiocin, ART-558, and RP6685) were evaluated both individually and in combination with standard of care and investigational anticancer small molecules within a complex spheroid model of solid tumors. . […]
measured parameter: viability, T/C (%)
Answer in %, number only, no unit symbol.

Check out these entries, answers already filled in.
compound	viability, T/C, %
COc1cc(C2c3cc4c(cc3C(OC3OC5COC(C)OC5C(O)C3O)C3COC(=O)C23)OCO4)cc(OC)c1O (stereo not given) + Cc1cccc(N(C)C(=O)C2C(O)CCN2c2nc(C)cc(C(F)(F)F)c2C#N)c1	90.8
COc1cc(C2c3cc4c(cc3C(OC3OC5COC(C)OC5C(O)C3O)C3COC(=O)C23)OCO4)cc(OC)c1O (stereo not given) + Nc1ccc(C#CCN(C(=O)Cc2ncc(C(F)(F)F)cc2C(F)(F)F)c2ccc(F)cc2)nn1	78.9
COc1ccc([C@@H](O)c2cc(-c3ncnc4cc(N5CCOCC5)ccc34)c(F)cc2Cl)nn1 + Cc1cccc(N(C)C(=O)C2C(O)CCN2c2nc(C)cc(C(F)(F)F)c2C#N)c1	97.4
Nc1ccn(C2OC(CO)C(O)C2(F)F)c(=O)n1 (stereo not given) + COC1C(OC(N)=O)C(O)C(Oc2ccc3c(O)c(NC(=O)c4ccc(O)c(CC=C(C)C)c4)c(=O)oc3c2C)OC1(C)C	54.7

Looking for the measured viability, T/C of CCc1cc2c(N3CCc4c(cc(Cn5ccnc5)cc4-c4cn(C)nc4C(F)(F)F)C3=O)cc(C)nc2c(OC)n1 + COC1C(OC(N)=O)C(O)C(Oc2ccc3c(O)c(NC(=O)c4ccc(O)c(CC=C(C)C)c4)c(=O)oc3c2C)OC1(C)C , can you help? 96.6

###

# System: 439559-082-T-J2-PDC spheroid viability
# measurement protocol: Anticancer human tumor 439559-082-T-J2-PDC cell line growth inhibition [POLQ];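 note: spheroids exposed to compounds for seven days before readout; 100% = DMSO vehicle control viability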
# stated conditions: second compound 3.16 µM; first compound 0.316 µM; stronger effect = lower value; spheroids with HUVEC and MSC
measured parameter: viability, T/C
Could you write the number and then its unit?

Check out these entries, answers already filled in.
compound	assay value
CCc1cc2c(N3CCc4c(cc(Cn5ccnc5)cc4-c4cn(C)nc4C(F)(F)F)C3=O)ccnc2c(OC)n1 + Nc1ccc(C#CCN(C(=O)Cc2ncc(C(F)(F)F)cc2C(F)(F)F)c2ccc(F)cc2)nn1	95%
CCc1cc2c(N3CCc4c(cc(Cn5ccnc5)cc4-c4cn(C)nc4C(F)(F)F)C3=O)ccnc2c(OC)n1 + COC1C(OC(N)=O)C(O)C(Oc2ccc3c(O)c(NC(=O)c4ccc(O)c(CC=C(C)C)c4)c(=O)oc3c2C)OC1(C)C	99.4%
CC(C)n1c(=O)n(C)c2cnc3cc(F)c(-c4ccc(OCCCN5CCCCC5)nc4)cc3c21 + COC1C(OC(N)=O)C(O)C(Oc2ccc3c(O)c(NC(=O)c4ccc(O)c(CC=C(C)C)c4)c(=O)oc3c2C)OC1(C)C	106%

Looking for the measured viability, T/C of CNCc1ccc(-c2[nH]c3cc(F)cc4c3c2CCNC4=O)cc1 + Nc1ccc(C#CCN(C(=O)Cc2ncc(C(F)(F)F)cc2C(F)(F)F)c2ccc(F)cc2)nn1 , can you help? 111%

Follow-up item: COc1ccc([C@@H](O)c2cc(-c3ncnc4cc(N5CCOCC5)ccc34)c(F)cc2Cl)nn1 + COC1C(OC(N)=O)C(O)C(Oc2ccc3c(O)c(NC(=O)c4ccc(O)c(CC=C(C)C)c4)c(=O)oc3c2C)OC1(C)C 97.7%
